Data provenance: patent US20240409629A1

# Test target: human CLDN18.2 (human)
# Procedure details: cell-based or functional assay
Reported property: ADCC EC50, PBMC effector cells, NIH-3T3-CLDN18.2 target cells (nM)
Answers are plain numbers, in nM.

[
  {
    "Binder": "humanized antibody hz28G3-1.3 (antibody, human IgG1, kappa, V domains shown) VH: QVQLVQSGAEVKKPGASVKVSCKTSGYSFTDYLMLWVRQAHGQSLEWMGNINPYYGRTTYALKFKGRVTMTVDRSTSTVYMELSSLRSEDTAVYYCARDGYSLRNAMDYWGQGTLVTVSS VL: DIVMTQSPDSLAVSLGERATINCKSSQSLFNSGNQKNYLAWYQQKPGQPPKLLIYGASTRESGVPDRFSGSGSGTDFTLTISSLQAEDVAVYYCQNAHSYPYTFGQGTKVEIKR",
    "Observed result": 0.51
  }
]

// switching to the query binder
Prompt: Given the binder humanized antibody hz40F6-1.4 (antibody, human IgG1, kappa, V domains shown) VH: QVQLVESGGGVVQPGRSLRLSCTVSGFTLTSYGVYWVRQAPGKGLEWVAVVWAGGNTNYNSALKGRFTISKDNSKSTLYLQMNSLRAEDTAVYYCARDRGRLLAMDYWGQGTLVTVSS VL: DIVMTQSPDSLAVSLGERATINCKSSQSLLNSGNQKNYLAWYQQKPGQPPKLLIYGASTRESGVPDRFTGSGSGTDFTLTISSLQAEDVAVYYCQNDHFFPFTFGQGTKVEIKR , what is its reported ADCC EC50, PBMC effector cells, NIH-3T3-CLDN18.2 target cells?
Response: 0.31
